IC50 values for the compounds below.
Biological target: FLT3 (Homo sapiens)
Construct: purchased Life Technologies PV3182
Sequence (P36888 564-993 limits assumed): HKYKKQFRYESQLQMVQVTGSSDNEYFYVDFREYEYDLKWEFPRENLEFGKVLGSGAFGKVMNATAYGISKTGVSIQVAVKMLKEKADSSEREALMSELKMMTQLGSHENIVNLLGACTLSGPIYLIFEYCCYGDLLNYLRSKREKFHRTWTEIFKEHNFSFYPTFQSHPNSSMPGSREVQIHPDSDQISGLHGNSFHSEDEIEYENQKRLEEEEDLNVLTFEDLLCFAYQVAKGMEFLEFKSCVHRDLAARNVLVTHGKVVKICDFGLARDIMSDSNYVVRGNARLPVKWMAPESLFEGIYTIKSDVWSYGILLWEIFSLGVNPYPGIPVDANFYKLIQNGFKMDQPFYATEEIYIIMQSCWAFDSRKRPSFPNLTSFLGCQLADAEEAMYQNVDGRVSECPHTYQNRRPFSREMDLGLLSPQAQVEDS
Test: LanthaScreen TR-FRET binding test, FLT3
Details: recombinant FLT3 15 nM, kinase tracer 236 3 nM, 25° C., 1 hour; read-out: Inhibition (IC50) of FLT3 enzyme
measurement_name: IC50 (nM)

c1cc(N2C[C@H]3C[C@@H]2CN3)c2cc1Nc1ncc3c(n1)-c1cc(ccc1CC3)OCCOCCO2 [Compound 44] :: 5.2
c1cc(N2CCC(N3CCCCC3)CC2)c2cc1Nc1ncc3c(n1)-c1cc(ccc1CC3)OCCOCCO2 [Compound 10] :: 6
c1cc(N2CCC(N3CCOCC3)C2)c2cc1Nc1ncc3c(n1)-c1cc(ccc1CC3)OCCOCCO2 (stereo not shown) [Compound 7] :: 18
c1cc(N2CCNCC2)c2cc1Nc1ncc3c(n1)-c1cc(ccc1CC3)OCCOCCO2 [Compound 5] :: 4.4

---

system: MV4-11 cell line; assay: Antiproliferative activity (ATPLite cell viability), MV4-11; type: cell-based; settings: Homo sapiens, MV4-11 (acute myeloid leukemia, FLT3-ITD), 72 h incubation, read-out: Cytotoxicity (EC50) on MV411 cell line
pEC50: −log10 of the molar value.
measurement_name: pEC50

c1cc(N2C[C@H]3C[C@@H]2CN3)c2cc1Nc1ncc3c(n1)-c1cc(ccc1CC3)OCCOCCO2 :: 8.00
c1cc(OCCN2CCCC2)c2cc1Nc1ncc3c(n1)-c1cc(ccc1CC3)OCCOCCO2 :: 8.04
c1cc(N2CC3CCC(C2)N3)c2cc1Nc1ncc3c(n1)-c1cc(ccc1CC3)OCCOCCO2 :: 8.52
c1cc(N2CCC(N3CCCCC3)CC2)c2cc1Nc1ncc3c(n1)-c1cc(ccc1CC3)OCCOCCO2 :: 8.19

---

Target: FLT3-ITD (Homo sapiens, UniProt P36888)
Construct: FLT3-ITD (#0778-0000-1) and FLT3^D835Y (#14-610) proteins were purchased from ProQinase and Merck Millipore, respectively; fused on or other part: GST tag, inferred from detection with the anti-GST europium antibody
Sequence (P36888 1-993): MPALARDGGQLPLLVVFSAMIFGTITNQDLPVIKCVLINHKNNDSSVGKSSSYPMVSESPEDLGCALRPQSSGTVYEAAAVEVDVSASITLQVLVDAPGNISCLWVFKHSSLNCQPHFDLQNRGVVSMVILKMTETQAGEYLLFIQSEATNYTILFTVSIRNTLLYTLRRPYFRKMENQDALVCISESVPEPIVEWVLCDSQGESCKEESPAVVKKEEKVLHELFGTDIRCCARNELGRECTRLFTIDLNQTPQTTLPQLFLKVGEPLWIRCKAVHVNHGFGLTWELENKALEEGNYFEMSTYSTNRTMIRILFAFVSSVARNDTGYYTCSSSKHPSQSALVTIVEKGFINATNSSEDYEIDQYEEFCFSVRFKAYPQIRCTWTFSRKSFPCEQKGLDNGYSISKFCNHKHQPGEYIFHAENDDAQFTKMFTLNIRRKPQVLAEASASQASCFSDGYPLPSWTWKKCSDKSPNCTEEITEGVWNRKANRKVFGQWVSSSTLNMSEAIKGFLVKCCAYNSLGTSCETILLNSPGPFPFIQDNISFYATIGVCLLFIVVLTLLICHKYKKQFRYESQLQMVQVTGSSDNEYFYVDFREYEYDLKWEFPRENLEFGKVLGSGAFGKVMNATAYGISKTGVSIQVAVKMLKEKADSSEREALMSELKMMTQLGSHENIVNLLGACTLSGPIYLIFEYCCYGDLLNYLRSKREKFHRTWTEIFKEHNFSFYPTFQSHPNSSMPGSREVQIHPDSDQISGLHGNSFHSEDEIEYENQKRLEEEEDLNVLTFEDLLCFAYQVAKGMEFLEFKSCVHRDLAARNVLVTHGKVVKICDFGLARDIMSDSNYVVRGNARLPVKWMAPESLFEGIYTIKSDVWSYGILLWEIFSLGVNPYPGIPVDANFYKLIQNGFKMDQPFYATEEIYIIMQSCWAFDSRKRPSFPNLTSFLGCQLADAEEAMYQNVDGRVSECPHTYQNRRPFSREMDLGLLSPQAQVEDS
Test: LanthaScreen TR-FRET binding test, FLT3-ITD
Details: FLT3-ITD 15 nM, kinase tracer 236 3 nM, 25° C., 1 hour; read-out: Inhibition (IC50) of FLT3-ITD enzyme
Procedure: FLT3 (#PV3182), JAK2 (#PV4210) and JAK3 (#PV3855) recombinant enzymes were purchased from Life Technologies. FLT3-ITD (#0778-0000-1) and FLT3^D835Y (#14-610) proteins were purchased from ProQinase and Merck Millipore, respectively. All the tests were carried out in 384-well plates. […] The compounds are evaluated at 8 different concentrations prepared by making dilutions from a starting 10 mM stock solution in dimethylsulfoxide (DMSO) (Sigma, #D8418). […]
IC50 values for the compounds below.
measurement_name: IC50

c1cc(OCCN2CCCC2)c2cc1Nc1ncc3c(n1)-c1cc(ccc1CC3)OCCOCCO2 :: 2 nM
CN1CCN(c2ccc3cc2OCCOCCOc2ccc4c(c2)-c2nc(ncc2CC4)N3)CC1(C)C :: 0.51 nM
c1cc(N2CC3CCC(C2)N3)c2cc1Nc1ncc3c(n1)-c1cc(ccc1CC3)OCCOCCO2 :: 1.1 nM
OC1CCN(c2ccc3cc2OCCOCCOc2ccc4c(c2)-c2nc(ncc2CC4)N3)CC1 :: 2.4 nM
CN(C)C1CCN(c2ccc3cc2OCCOCCOc2ccc4c(c2)-c2nc(ncc2CC4)N3)C1 (centres unmarked) :: 1 nM
c1cc(N2CCC(N3CCCCC3)CC2)c2cc1Nc1ncc3c(n1)-c1cc(ccc1CC3)OCCOCCO2 :: 1.3 nM
c1cc(N2CCC(N3CCOCC3)C2)c2cc1Nc1ncc3c(n1)-c1cc(ccc1CC3)OCCOCCO2 (centres unmarked) :: 6.4 nM
CN1CCN(c2ccc3cc2OCCOCCOc2ccc4c(c2)-c2nc(ncc2CC4)N3)CC1 :: 0.14 nM
